Ratio [(IC50/nM) high HSA]/[(IC50/nM) low HSA] values by entry
Molecular target: T1, human GLP-1 receptor (human, UniProt P43220 24-463)
T1 construct: whole, on cells; Used as purified plasma membranes of the stably transfected BHK cell line, not as intact cells; also called hGLP-1
Experiment: SPA displacement assay; IC50 at 2.0% HSA over IC50 at 0.001% HSA
Numbered stars: 1 amine (or outer) side, 2 acyl side, 3 side chain; on linkers, the order of the positions; unused ones are H or OH. Square brackets hold non-standard residues; d marks the D form. Side chains are listed from the residue outwards. Ends that are not written are not given here. * marks the point of attachment. Decanoyl(10-(4-HOOC-PhO)) = O=C(O)c1ccc(OCCCCCCCCCC(=O)*)cc1; γGlu = O=C(O)[C@H](CCC(=O)[*:2])N[*:1]; C14 diacid = O=C(O)CCCCCCCCCCCCC(=O)*; AEEA = NCCOCCOCC(=O)O; Aib = CC(C)(N)C(=O)O
measure: Ratio [(IC50/nM) high HSA]/[(IC50/nM) low HSA]

HAEGTFTSDVSSYLEGQAVRK([AEEA-AEEA-γGlu-γGlu-Decanoyl(10-(4-HOOC-PhO))])FIAWLVQGK([AEEA-AEEA-γGlu-γGlu-Decanoyl(10-(4-HOOC-PhO))])G (also called 23)    47
H[Aib]EGTFTSDVSSYLEK([AEEA-AEEA-γGlu-C14 diacid])QAVRK([AEEA-AEEA-γGlu-C14 diacid])FIAWLVRG    157
HAEGTFTSDVSSYLEEQK([AEEA-AEEA-γGlu-C14 diacid])VRK([AEEA-AEEA-γGlu-C14 diacid])FIAHLVRGRG (also called 24)    18
HAEGTFTSDVSSYLEEQK([AEEA-AEEA-γGlu-Decanoyl(10-(4-HOOC-PhO))])ARK([AEEA-AEEA-γGlu-Decanoyl(10-(4-HOOC-PhO))])FIAHLVG (also called 25)    3.5
